Molecular target: UniProt P11388
Assay: Inhibition of human topoisomerase 2 alpha-mediated relaxation of supercoiled pHOT DNA at 100 uM after 30 mins by agarose gel electrophoresis
Activity calls are given as the source filed them. No cut-off for these calls is given here.
Pick from active, inactive when you respond.

Below, 3 molecules whose answers are already recorded.
Structure Notation: C=CCNC(=S)N/N=C(\C)c1ccccn1
Class Label: inactive
//
Structure Notation: S=C(NCc1ccccc1)N/N=C/c1ccccn1
Class Label: inactive
//
Structure Notation: CCNC(=S)N/N=C/c1ccccn1
Class Label: active

Exercise: Record request — test call for N/C(S)=N/N=C/c1ccccn1
Solution: inactive

Exercise: Each molecule tested received a call. Report the one for CNC(=S)N/N=C(\C)c1ccccn1 .
Solution: active

* * *

Biological target: DNA topoisomerase 2-alpha (Homo sapiens, UniProt P11388)
Sequence (P11388 whole entry): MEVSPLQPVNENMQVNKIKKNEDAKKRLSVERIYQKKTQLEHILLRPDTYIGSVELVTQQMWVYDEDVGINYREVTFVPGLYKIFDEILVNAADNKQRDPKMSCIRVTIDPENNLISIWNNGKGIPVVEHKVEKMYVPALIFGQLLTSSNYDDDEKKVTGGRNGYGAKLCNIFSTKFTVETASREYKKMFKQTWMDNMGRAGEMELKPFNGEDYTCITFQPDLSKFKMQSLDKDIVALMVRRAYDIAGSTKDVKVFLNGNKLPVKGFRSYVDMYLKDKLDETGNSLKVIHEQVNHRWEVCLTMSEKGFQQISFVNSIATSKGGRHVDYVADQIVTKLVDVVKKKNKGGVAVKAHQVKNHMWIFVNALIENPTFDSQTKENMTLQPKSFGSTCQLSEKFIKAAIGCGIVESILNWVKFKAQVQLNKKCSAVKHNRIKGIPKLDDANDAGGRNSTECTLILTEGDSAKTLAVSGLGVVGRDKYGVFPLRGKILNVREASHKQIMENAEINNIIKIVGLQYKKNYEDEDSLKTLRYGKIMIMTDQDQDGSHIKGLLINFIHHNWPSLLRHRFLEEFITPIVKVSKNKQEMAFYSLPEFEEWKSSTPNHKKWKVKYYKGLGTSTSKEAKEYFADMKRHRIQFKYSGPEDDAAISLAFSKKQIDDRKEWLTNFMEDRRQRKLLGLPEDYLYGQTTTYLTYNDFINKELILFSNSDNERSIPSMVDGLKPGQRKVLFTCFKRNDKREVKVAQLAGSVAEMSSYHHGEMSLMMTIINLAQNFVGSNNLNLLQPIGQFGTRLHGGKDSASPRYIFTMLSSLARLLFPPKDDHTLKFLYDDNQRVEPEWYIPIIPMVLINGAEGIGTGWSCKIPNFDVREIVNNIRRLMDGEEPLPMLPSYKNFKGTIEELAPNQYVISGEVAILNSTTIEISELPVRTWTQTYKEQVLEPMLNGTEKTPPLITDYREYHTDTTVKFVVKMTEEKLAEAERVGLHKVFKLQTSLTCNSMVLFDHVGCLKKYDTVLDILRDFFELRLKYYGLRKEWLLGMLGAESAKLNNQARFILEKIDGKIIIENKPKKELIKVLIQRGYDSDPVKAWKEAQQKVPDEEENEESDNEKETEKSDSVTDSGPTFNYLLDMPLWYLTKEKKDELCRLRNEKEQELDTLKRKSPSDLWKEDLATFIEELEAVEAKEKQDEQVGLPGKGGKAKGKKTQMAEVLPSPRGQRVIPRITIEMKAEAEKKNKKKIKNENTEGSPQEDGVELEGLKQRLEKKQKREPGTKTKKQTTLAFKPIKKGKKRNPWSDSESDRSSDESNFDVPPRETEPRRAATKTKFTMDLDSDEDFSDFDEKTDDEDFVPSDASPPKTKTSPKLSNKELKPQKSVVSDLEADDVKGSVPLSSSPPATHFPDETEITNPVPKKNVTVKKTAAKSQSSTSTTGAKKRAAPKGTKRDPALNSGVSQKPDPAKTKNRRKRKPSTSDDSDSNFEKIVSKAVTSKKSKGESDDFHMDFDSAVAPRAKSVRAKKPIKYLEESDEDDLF
Assay: Inhibition of human topoisomerase 2 alpha-mediated relaxation of supercoiled pHOT DNA at 100 uM after 30 mins by agarose gel electrophoresis
The source made the active and inactive calls. The rule behind the calls is not given here.
Choose one outcome from this list and give only that: yes for active, no for inactive

As a guide, the following entries are already answered.
Structure Notation: CCNC(=S)N/N=C(\C)c1ccccn1
Class Label: yes
--
Structure Notation: S=C(N/N=C/c1ccccn1)N1CCCC1
Class Label: no
--
Structure Notation: C/N=C(\S)N/N=C(\C)c1cnccn1
Class Label: no

Exercise: Lab log entry: CC(C)NC(=S)N/N=C/c1ccccn1 — outcome as called in the assay?
Solution: no

Exercise: Hi, do you know how CNC(=S)N/N=C/c1ccccn1 came out in this test?
Solution: yes

Exercise: Name the outcome recorded for C=CCNC(=S)N/N=C/c1ccccn1 in the assay.
Solution: no

Reference for the values: ChEMBL document CHEMBL1765066
